Some compounds, each annotated with its measured pEC50.
- Tested on: FADD−/− Jurkat cells
- Test description: TNF-induced programmed cell necrosis inhibition, Cell Titer-Glo viability
- Assay type: cell-based
- Conditions used: FADD−/− Jurkat cells (human), TNFa + SM164; read-out: EC50 inhibitory activity on programmed cell necrosis
Please report pEC50 as the negative decimal logarithm of the molar concentration, giving only the number.

Would you please look over these solved cases?
| Compound | pEC50 |
| --- | --- |
| Cc1noc([C@@H]2CCCN2C(=O)C(C)(C)Oc2ccc(Cl)cc2C)n1 [QY-3-94] | 5.53 |
| CN1C(=O)NC(Cc2c[nH]c3c(Cl)cccc23)C1=O (stereo not drawn) [Compound 7-Cl-O-Nec-1, reference compound] | 6.47 |

As a next step, examine the compound that follows.
-- ask Find pEC50 for Cc1noc([C@@H]2CCCN2C(=O)C(C)(C)Oc2ccc(Cl)cc2C)n1 [QY-3-96] on FADD−/− Jurkat cells and write it down.
-- reply 5.04
